test system: KM12; experiment: NCI60 antitumor screening; type: cell-based, human; settings: Homo sapiens; 10 μM single dose; KM12 (colon cancer); read-out: growth inhibition percent (GI%)
Measurement label: inhibition at 10 µM

Entry smiles	Target system	Assay value
Cc1ccc(CSc2nc(-c3ccc(F)cc3)c(C#N)c(N3CCN(c4ccccc4)CC3)n2)cc1	KM12	< 10%
CN1CCN(c2nc(SCc3ccc(F)cc3)nc(-c3ccc(F)cc3)c2C#N)CC1	KM12	< 10%
N#Cc1c(-c2ccc(F)cc2)nc(SCc2ccccc2)nc1N1CCN(c2ccccc2)CC1	KM12	< 10%

Here's the next entry for you.
Task: Quote inhibition at 10 µM reported for CN1CCN(c2nc(SCc3ccc([N+](=O)[O-])cc3)nc(-c3ccc(F)cc3)c2C#N)CC1 please.
Result: < 10%
